A collection of compounds and their measured pest or weed control at 20 ppm
system: Cucurbit Leaf Beetle (Aulacophora femoralis); assay: Cucurbit leaf beetle (Aulacophora femoralis) cucumber leaf dip test; format: in vivo; settings: Aulacophora, foliar, 168 h; active compound concentration 20 ppm; after 7 days; read-out: insecticidal activity

COMPOUND	pest or weed control at 20 ppm (%)
O=C(NCc1cnc(N2CCC(c3cc(C(F)(F)F)cc(C(F)(F)F)c3)(C(F)(F)F)C2O)cc1C(F)(F)F)C1CC1 (stereo not shown)	100
CCC(=O)NCc1ccc(N2CC(c3cc(C(F)(F)F)cc(C(F)(F)F)c3)(C(F)(F)F)CC2O)nc1C(F)(F)F (stereo not shown)	100
O=C(CC(F)(F)F)NCc1ccc(N2CCC(c3cc(C(F)(F)F)cc(C(F)(F)F)c3)(C(F)(F)F)C2O)nc1Br (stereo not shown)	100
O=C(NCc1ccc(N2CCC(c3cc(C(F)(F)F)cc(C(F)(F)F)c3)(C(F)(F)F)C2O)cc1Cl)C1CC1 (stereo not shown)	100
CC(C)(C)OC(=O)NCc1ccc(N2CCC(c3cc(C(F)(F)F)cc(C(F)(F)F)c3)(C(F)(F)F)C2O)cc1Cl (stereo not shown)	100
CCC(=O)NCc1ccc(N2CCC(c3cc(Cl)c(Cl)c(Cl)c3)(C(F)(F)F)C2O)cc1Br (stereo not shown)	100
CCC(=O)NCc1ccc(N2CCC(c3cc(Cl)c(F)c(Cl)c3F)(C(F)(F)F)C2O)cc1C(F)(F)F (stereo not shown)	100
